Cited source for all entries: patent US20240239788A1

Molecular target: KRAS protein containing G12D mutation (Homo sapiens (Human), UniProt P01116, G12D)
Sequence (P01116 other isoform, or with tags, fused parts or gaps G12D (already in the parent)): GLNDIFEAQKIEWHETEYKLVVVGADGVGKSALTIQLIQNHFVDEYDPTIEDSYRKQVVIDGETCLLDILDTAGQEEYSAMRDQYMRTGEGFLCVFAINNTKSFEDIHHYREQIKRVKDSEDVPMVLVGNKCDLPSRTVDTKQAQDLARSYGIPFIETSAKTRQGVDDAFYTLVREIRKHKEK
Assay: SOS-catalyzed nucleotide exchange assay (GNE), TR-FRET
Assay type: biochemical
Conditions: biotinylated KRAS G12D, SOS and GTP, 60-minute incubation
Structures can show the parent of a compound that is named as a salt.
Exercise: state measured IC50 for each of the molecules provided.
Value and unit, in that order.

Bench note: what IC50 did CC(O)(COc1nc(N2CC3CC[C@@](C)(C2)N3)c2cc(F)c(-c3cc(O)cc4cccc(Cl)c34)c(F)c2n1)CN1CC[C@@H](F)C1 (single isomer, unassigned) [Ex. 210] show?
2150 nM

Next up: Cc1cc(N)nc(-c2c(Cl)cc3c(N4C[C@H]5CC[C@@](C)(C4)N5)nc(OC[C@@]45CCCN4C[C@H](F)C5)nc3c2F)c1C(F)(F)F [Ex. 238a]
25.7 nM

Note, next up: C#Cc1cccc2cc(O)c(C)c(-c3c(F)cc4c(N5CC6CC[C@@](C)(C5)N6)nc(OC[C@@]56CCCN5C[C@H](F)C6)nc4c3F)c12 (single isomer, unassigned) [Ex. 204b]
23.4 nM

// repeat for C#Cc1cccc2cc(O)cc(-c3c(F)cc4c(N5C[C@H]6CC[C@@](C)(C5)N6)nc(OC)nc4c3F)c12 (single isomer, unassigned) [Ex. 171a, TFA] and report
1260 nM

Then what about the molecule CN1CCC[C@H]1COc1nc(N2CC3CCC(C2)N3)c2cc(Cl)c(-c3cc(O)cc4ccccc34)c(F)c2n1 ?
106 nM

How about this molecule: Cc1cc(N)c(F)c(-c2c(F)cc3c(N4CC5CCC(C4)N5)nc(OC[C@@]45CCCN4C[C@H](F)C5)nc3c2F)c1C(F)(F)F (single isomer, unassigned) [Ex. 146b]
25.2 nM

Param item: COCC1CCN(C[C@@]2(COc3nc(N4CC5CC[C@@](C)(C4)N5)c4cc(F)c(-c5cc(O)cc6cccc(Cl)c56)c(F)c4n3)CC2(F)F)C1 (single isomer, unassigned) [Ex. 214a]
4.95 nM

Try C[C@]12CC[C@H](CN(c3nc(OCC4(CN5CCOCC5)CC4)nc4c(F)c(-c5c(F)cc(F)c6ccc(N)nc56)c(Cl)cc34)C1)N2 (single isomer, unassigned) [Ex. 91a] next.
11100 nM

Next: C#Cc1c(F)ccc2cc(N)nc(-c3c(F)cc4c(N5C[C@H]6CC[C@@H](C5)N6)nc(OC[C@@]56CCCN5C[C@H](F)C6)nc4c3F)c12 (single isomer, unassigned) [252a]
0.85 nM

Record: CN(C)C[C@@]1(COc2nc(N3C[C@H]4CC[C@@H](C3)N4)c3cc(F)c(-c4c(C(F)(F)F)c(Cl)cc5cnn(C)c45)c(F)c3n2)CC1(F)F (single isomer, unassigned) [201a]
11100 nM

What would you report for CN(C)CC1(COc2nc(N3C[C@H]4CC[C@@](C)(C3)N4)c3cc(F)c(-c4cc(O)cc5ccccc45)c(F)c3n2)CC1 [Example 21] ?
14.4 nM
